target-desc: human IL-6 (mature hIL-6) (human, UniProt P05231 30-212)
Sequence (P05231 30-212): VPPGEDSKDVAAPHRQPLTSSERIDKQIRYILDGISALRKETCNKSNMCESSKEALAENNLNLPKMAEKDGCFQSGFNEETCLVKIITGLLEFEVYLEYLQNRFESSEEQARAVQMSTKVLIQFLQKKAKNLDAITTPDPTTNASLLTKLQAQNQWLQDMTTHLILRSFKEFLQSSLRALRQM
assay-remarks: cell-based or functional assay

# binder, IC 50 (nM), reporter gene assay, 0% HSA
data = [
    ("Polypeptide_18 (VHH, VHH_1.16 with C-terminal His tag extension E1; also called [VHH_1.16]-E1) VHH: EVQLVESGGGLVQPGGSLRLSCAASGFTFSNYWMYWVRQAPGKGLEWVSGINTGGSTPDYADSVKGRFAISRDNAKNTLYLQMNSLRPEDTAVYYCAADTPRVFRLDHYSPLGQGTQVTVSS", 0.02),
    ("Compound 10 (VHH, Chem. 24 (C16 diacid substituent) on Cys in position 4 and on Cys in position 6 of the extension (SEQ ID NO: 72), Polypeptide derivative; extension E2 at the C-terminus of the VHH; also called VHH_1.7-E2 with 2x Chem. 24) VHH: EVQLVESGGGLVQPGGSLQLSCTTSGRKFDEYAVGWFRQGPGQEREFVADIGENAENTWYAESVLGRFTISRDDAKNTVYLEMDGLKPEDTAVYYCAADKYGVGGNAQGYYDSWGQGTQVTVSS", 0.022),
    ("Polypeptide_28 (VHH, VHH_1.5 with C-terminal His tag extension E1; also called [VHH_1.5]-E1) VHH: EVQLVESGGGLVQPGGSLQLSCTTSGRKFDEYAVGWFRQGPGKEREFVADIGENAENTWYAESVLGRFTISRDDAKNTVYLQMDSLKPEDTAVYYCAADKYGVGGNAQGYYDSWGQGTQVTVSS", 0.027),
    ("Compound 8 (VHH, Chem. 24 (C16 diacid substituent) on Cys in position 4 and on Cys in position 6 of the extension (SEQ ID NO: 72), Polypeptide derivative; extension E2 at the C-terminus of the VHH; also called VHH_1.5-E2 with 2x Chem. 24) VHH: EVQLVESGGGLVQPGGSLQLSCTTSGRKFDEYAVGWFRQGPGKEREFVADIGENAENTWYAESVLGRFTISRDDAKNTVYLQMDSLKPEDTAVYYCAADKYGVGGNAQGYYDSWGQGTQVTVSS", 0.02),
    ("Compound 9 (VHH, Chem. 24 (C16 diacid substituent) on Cys in position 4 and on Cys in position 6 of the extension (SEQ ID NO: 72), Polypeptide derivative; extension E2 at the C-terminus of the VHH; also called VHH_1.6-E2 with 2x Chem. 24; Chem. 31) VHH: EVQLVESGGGLVQPGGSLKLSCTTSGRRFSEYAVGWFRQAPGKEREFVADIGEQAENTWYAESVLGRFTISRDDAKNTVYLEMDGLKPEDTAVYYCAADKYGVGGNAQGYYDSWGQGTQVTVSS", 0.022),
    ("Compound 5 (VHH, Chem. 24 (C16 diacid substituent) on Cys in position 4 and on Cys in position 6 of the extension (SEQ ID NO: 72), Polypeptide derivative; extension E2 at the C-terminus of the VHH; also called VHH_1.2-E2 with 2x Chem. 24) VHH: EVQLVESGGGLVQPGGSLKLSCTTSGRRFSEYAVGWFRQGPGKEREFVADIGEQAENTWYAESVLGRFTISRDDAKNTVYLQMDSLKPEDTAVYYCAADKYGVGGNAQGYYDSWGQGTQVTVSS", 0.019),
    ("Compound 7 (VHH, Chem. 24 (C16 diacid substituent) on Cys in position 4 and on Cys in position 6 of the extension (SEQ ID NO: 72), Polypeptide derivative; extension E2 at the C-terminus of the VHH; also called VHH_1.4-E2 with 2x Chem. 24) VHH: EVQLVESGGGLVQPGGSLQLSCTTSGRKFDEYAVGWFRQAPGKEREFVADIGENAENTWYAHSVLGRFTISRDDAKNTVYLQMDSLKPEDTAVYYCAADKYGVGGNAQGYYDSWGQGTQVTVSS", 0.025),
    ("Polypeptide_24 (VHH, VHH_1.3 with C-terminal His tag extension E1; also called [VHH_1.3]-E1) VHH: EVQLVESGGGLVQPGGSLQLSCTTSGRRFSEYAVGWFRQGPGKEREFVADIGEQAENTWYAHSVLGRFTISRDDAKNTVYLQMDSLKPEDTAVYYCAADKYGVGGNAQGYYDSWGQGTQVTVSS", 0.019),
]
